B1: POU domain, class 3, transcription factor 2, residues 262 to 338; numbered along this chain, P20265 (parent)
chain: EDTPTSDDLEQFAKQFKQRRIKLGFTQADVGLALGTLYGNVFSQTTICRFEALQLSFKNMCKLKPLLNKWLEEADSS

- Variants of: B1
- assayInfo: abundance fitness (aPCA) (normalised: wild type 0, dead -1); higher = more abundant; growth selection in yeast, the domain comes from the species named
- conditionsUsed: Homo sapiens
Decide by abundance fitness: equal to or exceeding -0.01 means satisfied, less means not satisfied.

| mutations | label |
| --- | --- |
| A52V | not satisfied |
| L63S | not satisfied |
| Y38H | not satisfied |
| T45K | satisfied |
| S43P | not satisfied |
| F57H | not satisfied |
| F50K | not satisfied |
| S76K | satisfied |
| R49D | satisfied |
| L63I | not satisfied |
| Q15H | satisfied |
